Target: T1, VLP2 (virus-like particles of AAV2) (AAV2, UniProt P03135 1-735; P03135 1-598; P03135 1-533)
T1 construct: Empty AAV2 capsid; background says about 60 protein molecules, VP1:VP2:VP3 = 1:1:10; Immobilised on the ELISA plate
T1 sequence (P03135 whole entry, chain 1 of 3): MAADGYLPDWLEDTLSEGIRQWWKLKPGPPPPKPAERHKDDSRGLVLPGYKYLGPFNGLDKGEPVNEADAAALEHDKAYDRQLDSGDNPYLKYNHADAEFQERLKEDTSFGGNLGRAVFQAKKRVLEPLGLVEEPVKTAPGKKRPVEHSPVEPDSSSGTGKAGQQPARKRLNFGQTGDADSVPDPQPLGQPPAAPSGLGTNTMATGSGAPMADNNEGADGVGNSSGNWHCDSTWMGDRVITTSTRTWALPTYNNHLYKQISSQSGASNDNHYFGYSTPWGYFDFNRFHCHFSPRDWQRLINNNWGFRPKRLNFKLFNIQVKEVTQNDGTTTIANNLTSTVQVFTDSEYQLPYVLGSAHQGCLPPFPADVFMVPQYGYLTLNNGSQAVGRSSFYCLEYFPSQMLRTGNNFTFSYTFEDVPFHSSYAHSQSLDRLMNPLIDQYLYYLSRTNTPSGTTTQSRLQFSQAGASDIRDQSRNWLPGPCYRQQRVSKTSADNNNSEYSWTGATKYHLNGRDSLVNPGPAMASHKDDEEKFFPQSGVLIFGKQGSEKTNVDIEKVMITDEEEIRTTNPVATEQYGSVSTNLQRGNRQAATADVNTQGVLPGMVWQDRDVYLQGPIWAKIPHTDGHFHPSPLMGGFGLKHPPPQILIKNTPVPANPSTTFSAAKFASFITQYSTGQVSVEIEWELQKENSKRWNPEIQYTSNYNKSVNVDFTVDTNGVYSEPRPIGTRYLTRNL
T1 sequence (P03135 139-735, tags left off, chain 2 of 3): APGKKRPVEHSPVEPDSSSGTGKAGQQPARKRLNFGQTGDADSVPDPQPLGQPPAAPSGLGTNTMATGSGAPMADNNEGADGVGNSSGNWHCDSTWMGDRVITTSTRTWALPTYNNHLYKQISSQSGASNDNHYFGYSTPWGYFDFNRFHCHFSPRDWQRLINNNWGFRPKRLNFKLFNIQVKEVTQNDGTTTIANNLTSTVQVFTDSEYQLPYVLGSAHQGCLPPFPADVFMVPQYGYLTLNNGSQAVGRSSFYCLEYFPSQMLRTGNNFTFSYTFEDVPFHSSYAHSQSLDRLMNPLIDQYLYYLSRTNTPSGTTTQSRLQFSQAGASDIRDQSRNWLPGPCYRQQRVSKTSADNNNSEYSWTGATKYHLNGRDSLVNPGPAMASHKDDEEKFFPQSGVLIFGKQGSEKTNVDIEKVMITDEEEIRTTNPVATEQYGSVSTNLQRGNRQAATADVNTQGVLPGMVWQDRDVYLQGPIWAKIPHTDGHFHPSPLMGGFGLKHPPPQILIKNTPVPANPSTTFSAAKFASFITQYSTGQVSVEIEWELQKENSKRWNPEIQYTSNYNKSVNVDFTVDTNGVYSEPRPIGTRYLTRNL
T1 sequence (P03135 203-735, chain 3 of 3): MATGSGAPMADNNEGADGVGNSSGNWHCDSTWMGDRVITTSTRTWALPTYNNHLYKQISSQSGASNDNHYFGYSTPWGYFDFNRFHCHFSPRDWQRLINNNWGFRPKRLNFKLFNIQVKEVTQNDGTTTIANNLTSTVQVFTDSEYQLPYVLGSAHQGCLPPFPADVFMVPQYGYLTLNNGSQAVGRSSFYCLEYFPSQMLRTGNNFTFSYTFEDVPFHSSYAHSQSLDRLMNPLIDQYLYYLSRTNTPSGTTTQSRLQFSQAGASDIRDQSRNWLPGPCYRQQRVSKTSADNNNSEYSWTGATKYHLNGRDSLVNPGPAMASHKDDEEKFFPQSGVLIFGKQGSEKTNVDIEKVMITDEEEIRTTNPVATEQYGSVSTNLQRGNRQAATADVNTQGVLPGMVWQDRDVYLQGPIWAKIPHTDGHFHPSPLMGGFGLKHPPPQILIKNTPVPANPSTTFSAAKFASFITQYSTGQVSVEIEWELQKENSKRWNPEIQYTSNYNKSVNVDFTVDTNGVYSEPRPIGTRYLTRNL
Test: ELISA on VLP2; binding after pH 3.0 51.1°C 15 min / untreated;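 note: binding of the heat-treated AAV-binding protein to VLP2, expressed as a percentage of the binding of the same protein without heating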
Reported Residual activity [%] values for the following binders.

- binder: "AAV-binding protein No. 77 (AVR2 + Leu321Pro, Ile409Val) (receptor) MGSAGESVQITPPKNEVQLNAYVLQEPPKGETCTYDWQLITHPRDYSGEMEGKHSQILKLSKLTPGLYEFKVIVEGQNAHSEGYVNVTVKPEPRKNRPPVAIVSPQFQEISLPTTSTVIDGSQSTDDDKIVQYHWEELKGPLREEKISEDTAILKLSKLVPGNYTFSLTVVDSDGATNSTTANLTVNKAVDHHHHHH"
  unitText: "%"
  Residual activity [%]: 34.3
- binder: "AAV-binding protein No. 63 (AVR2 + Tyr331His) (receptor) MGSAGESVQITLPKNEVQLNAHVLQEPPKGETCTYDWQLITHPRDYSGEMEGKHSQILKLSKLTPGLYEFKVIVEGQNAHSEGYVNVTVKPEPRKNRPPIAIVSPQFQEISLPTTSTVIDGSQSTDDDKIVQYHWEELKGPLREEKISEDTAILKLSKLVPGNYTFSLTVVDSDGATNSTTANLTVNKAVDHHHHHH"
  unitText: "%"
  Residual activity [%]: 43.1
- binder: "AAV-binding protein No. 64 (AVR2 + Val332Ala) (receptor) MGSAGESVQITLPKNEVQLNAYALQEPPKGETCTYDWQLITHPRDYSGEMEGKHSQILKLSKLTPGLYEFKVIVEGQNAHSEGYVNVTVKPEPRKNRPPIAIVSPQFQEISLPTTSTVIDGSQSTDDDKIVQYHWEELKGPLREEKISEDTAILKLSKLVPGNYTFSLTVVDSDGATNSTTANLTVNKAVDHHHHHH"
  unitText: "%"
  Residual activity [%]: 41.4

Data origin, for the record: patent US20220402995A1
